Source listed as patent US20230287126A1.

- MEASURED_TARGET: T1, PD-L1-His-Biotin (human, UniProt Q9NZQ7 19-238, biotin-labelled (sites not given))
- T1 construct: also called PD-L1-His-Biotin antigen protein
- T1 sequence (Q9NZQ7 other isoform, or with tags, fused parts or gaps): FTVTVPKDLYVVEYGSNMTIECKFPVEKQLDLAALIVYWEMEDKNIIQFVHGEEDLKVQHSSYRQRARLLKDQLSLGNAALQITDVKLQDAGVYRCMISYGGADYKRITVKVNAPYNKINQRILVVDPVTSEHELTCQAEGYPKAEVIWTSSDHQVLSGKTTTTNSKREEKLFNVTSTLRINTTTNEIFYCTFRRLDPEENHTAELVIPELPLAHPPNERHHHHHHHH
- ASSAY_DETAILS: flow cytometry of yeast-displayed scFv with 1 nM PD-L1-His-Biotin, Streptavidin-PE; positive rate %
QUANTITY_MEASURED: binding result

>>> reported_result("CP22-40 (scFv, also called CP22-40 scFv) scFv (VH - linker - VL, VH at the N terminus): EVQLVESGGGLVQPGGSLRLSCAASGFTFSDSWIHWVRQAPGKGLEWVGWISPYGGSTYYADSVKGRFTISADTSKNTAYLQMNSLRAEDTAVYYCARRHWPGGLLPWGQGTLVTVSSGGGGSGGGGSGGGGSEIVLTQSPSSLSASVGDRVTITCLASQTIGTWLAWYQQKPGKSPQLLIYAASTLQSGVPSRFSGSGSGTDFTLTISSLQPEDVATYYCQQYYSTPRTFGQGTKVEIK")
"binds"
>>> reported_result("CP21-59 (scFv, also called CP21-59 scFv) scFv (VH - linker - VL, VH at the N terminus): EVQLVESGGGLVQPGGSLRLSCAASSFSLKDSWIHWVRQAPGKGLEWVGWISPYGGSTYYADSVKGRFTISADTSKNTAYLQMNSLRAEDTAVYYCARRHWPGGFDYWGQGTLVTVSSGGGGSGGGGSGGGGSEIVLTQSPSSLSASVGDRVTITCLASQTIGTWLAWYQQKPGKSPQLLIYAASTLQSGVPSRFSGSGSGTDFTLTISSLQPEDVATYYCQQYYSTPRTFGQGTKVEIK")
"binds"
>>> reported_result("CP22-45 (scFv, also called CP22-45 scFv) scFv (VH - linker - VL, VH at the N terminus): EVQLVESGGGLVQPGGSLRLSCAASNSHLRDSWIHWVRQAPGKGLEWVGWISPYGGSTYYADSVKGRFTISADTSKNTAYLQMNSLRAEDTAVYYCARRHWPGGFDYWGQGTLVTVSSGGGGSGGGGSGGGGSEIVLTQSPSSLSASVGDRVTITCLASQTIGTWLAWYQQKPGKSPQLLIYAASTLQSGVPSRFSGSGSGTDFTLTISSLQPEDVATYYCQQYYSTPRTFGQGTKVEIK")
"binds"
>>> reported_result("CP22-44 (scFv, also called CP22-44 scFv) scFv (VH - linker - VL, VH at the N terminus): EVQLVESGGGLVQPGGSLRLSCAASGLRPADSWIHWVRQAPGKGLEWVGWISPYGGSTYYADSVKGRFTISADTSKNTAYLQMNSLRAEDTAVYYCARRHWPGGFDYWGQGTLVTVSSGGGGSGGGGSGGGGSEIVLTQSPSSLSASVGDRVTITCLASQTIGTWLAWYQQKPGKSPQLLIYAASTLQSGVPSRFSGSGSGTDFTLTISSLQPEDVATYYCQQYYSTPRTFGQGTKVEIK")
"binds"
